Tested on: NCI-H23
Test: relative viability (nuclei count vs DMSO), 5 days (fraction); higher = more cells survive
Conditions: first compound 6.325 µM
In this section we review reported relative viability values for a set of molecules.
The response must contain the number and no unit.

Cc1csc(=NC2CCCCC2)n1/N=C/c1ccc(O)c(O)c1O [MIM1] + C[C@]1(O)C[C@@H](c2nc(-c3ccc4ccc(-c5ccccc5)nc4c3)c3c(N)nccn32)C1 [Linsitinib] (partner 1 µM): 0.58

Let us examine a further case.
What the record says about Cc1csc(=NC2CCCCC2)n1/N=C/c1ccc(O)c(O)c1O [MIM1] + Nc1nc2[nH]cc(CCc3ccc(C(=O)N[C@@H](CCC(=O)O)C(=O)O)cc3)c2c(=O)[nH]1 [Pemetrexed] (partner 0.2 µM) : relative viability is 0.5
